Attribution: PubChem BioAssay AID788

Test system: S. cerevisiae vps1Δ apl2Δ growth inhibition, dose response
Test: growth inhibition of vps1Δ apl2Δ yeast, dose response, post-Golgi transport modulator project, S. cerevisiae, background strain comparison (AID 788)
Active and inactive are the calls of the source. The rule behind the calls is not given here.
Can you answer with just one of these options? yes (1) for active, no (0) for inactive

molecule	category.label
Cc1ccc(SC(=O)COc2ccc(C)c(C)c2)cc1	no (0)
O=C(NCc1ccc2c(c1)OCO2)c1ccc(-n2cnnn2)cc1	no (0)
CCOC(=O)c1c(-n2c(C)cc(C=C3C(=O)NC(=S)NC3=O)c2C)sc2c1CCCC2	no (0)
c1ccc(COc2ccc(CN3CCN(c4ccccn4)CC3)cc2)cc1	no (0)

Recorded test call requested for COc1ccc2c(c1)C(C)=CC(C)(C)N2C(=O)CSc1nnc(-c2ccc(C)cc2)o1
no (0)

Recorded test call requested for Cc1ccc(S(=O)(=O)NC(CC(C)C)C(=O)Oc2ccc3c4c(c(=O)oc3c2)CCC4)cc1 (configuration not stated)
no (0)

Recorded test call requested for CC1CCCN(CCOCCOc2ccc(Cl)cc2Br)C1 (configuration not stated)
yes (1)

Recorded test call requested for NC(=O)c1ccsc1NC(=O)c1nc(-c2ccccc2)n(-c2ccccc2)n1
no (0)

Recorded test call requested for Nc1cc(N)c(OCC(F)(F)F)cc1OCC(F)(F)F
no (0)

Recorded test call requested for C=C(C)C1CC=C(CN2CCC(C(=O)OCC)CC2)CC1 (configuration not stated)
yes (1)

Recorded test call requested for CC(C)(C)n1nnnc1CN(Cc1cccnc1)Cc1ccccc1Cl
no (0)

Recorded test call requested for COc1ccc(C(=O)c2c(C(F)(F)F)oc3c2C(=O)c2ccccc2C3=O)cc1
no (0)

Recorded test call requested for O=C(Nc1nnc(-c2ccc3c(c2)CCCC3)o1)c1ccc(Cl)cc1Cl
no (0)

Recorded test call requested for CC1CCCCN1CCNC(=O)Cn1nc(-c2ccccc2)ccc1=O (configuration not stated)
no (0)

Recorded test call requested for Nc1c(C(=O)OCC2CCCO2)c2nc3ccccc3nc2n1-c1ccc2c(c1)OCCO2 (configuration not stated)
no (0)

Recorded test call requested for ON=Cc1cccn1-c1ccccc1
no (0)

Recorded test call requested for CCC(C)(C)n1nnnc1C(c1cc2cc3c(cc2[nH]c1=O)OCO3)N1CCN(C)CC1 (configuration not stated)
no (0)

Recorded test call requested for COc1ccc(N2CCN(c3oc(-c4ccco4)nc3C#N)CC2)cc1
no (0)

Recorded test call requested for Cc1ccc(C(=O)c2c(NC(=O)c3ccncc3)sc3c2CCCC3)cc1
yes (1)

Recorded test call requested for COc1ccc(CN(C(=O)Cc2cccs2)C(C(=O)NC2CCCC2)c2ccncc2)cc1 (configuration not stated)
no (0)

Recorded test call requested for Cc1c(Cc2ccccc2)c(=O)oc2c(C)c(OCc3nn[nH]n3)ccc12
no (0)

Recorded test call requested for CN1/C(=C/C2CC(=O)NC2=O)C(C)(C)c2ccccc21 (configuration not stated)
no (0)
